Cited source: patent US20230272056A1

testedTarget: T1, human LAP-TGFB1 Fc fusion (human)
T1 construct: also called human LAP-TGFβ1-Fc; human LAP-TGFβ-Fc isoform 1
T1 sequence (chain, as listed by the source limits assumed): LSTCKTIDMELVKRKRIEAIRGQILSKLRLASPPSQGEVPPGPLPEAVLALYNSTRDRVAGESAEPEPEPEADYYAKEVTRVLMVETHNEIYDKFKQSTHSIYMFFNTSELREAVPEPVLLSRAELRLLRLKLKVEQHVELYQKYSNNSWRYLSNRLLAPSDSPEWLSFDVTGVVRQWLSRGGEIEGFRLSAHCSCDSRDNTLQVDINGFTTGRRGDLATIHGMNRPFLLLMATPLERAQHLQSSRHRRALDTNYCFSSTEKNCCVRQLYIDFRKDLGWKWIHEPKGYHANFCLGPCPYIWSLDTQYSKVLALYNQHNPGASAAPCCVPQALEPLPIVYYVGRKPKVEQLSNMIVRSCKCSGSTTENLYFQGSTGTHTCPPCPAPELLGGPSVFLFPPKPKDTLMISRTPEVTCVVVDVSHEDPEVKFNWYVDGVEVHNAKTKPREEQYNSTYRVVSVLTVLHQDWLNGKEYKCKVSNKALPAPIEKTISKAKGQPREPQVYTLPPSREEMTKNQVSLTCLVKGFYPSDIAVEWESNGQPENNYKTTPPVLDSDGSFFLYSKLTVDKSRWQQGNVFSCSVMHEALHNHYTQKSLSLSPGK
experimentNotes: SPR pH 7.4, antigen-Fc captured, Fab analyte
measurementLabel: koff (s⁻¹)
Value expressed in s⁻¹; do not type the unit.

[Q] What does the data say about its koff? Entry: 60BLH (Fab, V domains shown, also called 12BLM Fab) VH: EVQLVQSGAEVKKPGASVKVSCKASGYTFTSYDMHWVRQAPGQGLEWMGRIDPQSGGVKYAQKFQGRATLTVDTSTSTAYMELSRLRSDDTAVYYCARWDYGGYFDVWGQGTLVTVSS VL: DIQMTQSPSSLSASVGDRVTITCRASQDIYNYLNWYQQKPGKAVKLLIYYTSVLETGVPSRFSGSGSGTDYTLTISSLQPEDFATYFCQQGDELPWTFGQGTKLEIK
[A] 0.000186

[Q] Recorded koff for 55BLH (Fab, V domains shown, also called 07BLM Fab) VH: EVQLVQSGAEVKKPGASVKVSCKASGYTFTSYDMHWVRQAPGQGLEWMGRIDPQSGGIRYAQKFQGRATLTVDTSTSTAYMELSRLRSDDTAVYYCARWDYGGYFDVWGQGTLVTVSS VL: DIQMTQSPSSLSASVGDRVTITCRASQDIYSYLNWYQQKPGKAVKLLIYYTSNLETGVPSRFSGSGSGTDYTLTISSLQPEDFATYFCQQGDTLPWTFGQGTKLEIK , please?
[A] 0.000528

[Q] Quick check: koff of 57BLH (Fab, V domains shown, also called 09BLM Fab) VH: EVQLVQSGAEVKKPGASVKVSCKASGYTFTSYDMHWVRQAPGQGLEWMGRIDPISGGIKYAQKFQGRATLTVDTSTSTAYMELSRLRSDDTAVYYCARWDYGGYFDVWGQGTLVTVSS VL: DIQMTQSPSSLSASVGDRVTITCRASQDIFNYLNWYQQKPGKAVKLLIYYTSHLETGVPSRFSGSGSGTDYTLTISSLQPEDFATYFCQQGDTLPWTFGQGTKLEIK ?
[A] 0.00049
